tested on: NCI-H1341 (Small Cell Lung Carcinoma); assay: combination Emax (second highest fraction inhibited in the dose matrix, 72 h); higher = more inhibition; extreme values may be limits of the assay
Reported values of combination Emax for individual entries
Please respond with just the number, no unit label.

See these solved cases before continuing.
CN(CCO)CC[C@H](CSc1ccccc1)Nc1ccc(S(=O)(=O)NC(=O)c2ccc(N3CCC([C@@H](O)c4ccccc4-c4ccc(Cl)cc4)CC3)cc2)cc1S(=O)(=O)C(F)(F)F [AZD4320] + C[C@@H](Nc1cc(F)cc(F)c1)c1cc(C(=O)N(C)C)cc2c(=O)cc(N3CCOCC3)oc12 [AZD8186] (first compound max 1 µM, 7x7, partner max 3 µM)
0.99
COc1nnc2ccc(N3CCC(c4ccc(OCCN5CCN(C)C(=O)[C@H]5C)cc4)CC3)nn12 [AZD5153] + CCN(CCO)CCCOc1ccc2c(Nc3cc(CC(=O)Nc4cccc(F)c4)[nH]n3)ncnc2c1 [AZD2811] (first compound max 1 µM, 7x7, partner max 1 µM)
0.659
Cc1c2c(nn1C)CSCc1cc(n(C)n1)CSc1cc(c3ccccc3c1)OCCCc1c(C(=O)O)n(C)c3c-2c(Cl)ccc13 [AZD5991] + C1CN(CCC1(C(=O)N[C@@H](CCO)C2=CC=C(C=C2)Cl)N)C3=NC=NC4=C3C=CN4 [Capivasertib] (first compound max 1 µM, 7x7, partner max 3 µM)
0.647

In: Under NCI-H1341 (Small Cell Lung Carcinoma): report combination Emax of COc1cc2ncnc(Nc3ccc(F)c(Cl)c3)c2cc1OCCCN1CCOCC1 [Gefitinib] + CC(C)n1c(=O)n(C)c2cnc3cc(F)c(-c4ccc(OCCCN5CCCCC5)nc4)cc3c21 [AZD1390] (first compound max 10 µM, 7x7, partner max 0.3 µM) .
Out: 0.108

In: # assay system NCI-H1341 (Small Cell Lung Carcinoma): give combination Emax of CC(=O)c1c(C)c2cnc(Nc3ccc(N4CCNCC4)cn3)nc2n(C2CCCC2)c1=O [Palbociclib] + Cn1cnc2c(F)c(Nc3ccc(Br)cc3Cl)c(C(=O)NOCCO)cc21 [Selumetinib] (first compound max 10 µM, 7x7, partner max 10 µM)
Out: 0.254

###

system: NCI-H1963 (Small Cell Lung Carcinoma); assay: combination Emax (second highest fraction inhibited in the dose matrix, 72 h); higher = more inhibition; extreme values may be limits of the assay
Measure: combination Emax
Form rule: numeric answer, no unit written next to it.

In: Output combination Emax of Cc1c2c(nn1C)CSCc1cc(n(C)n1)CSc1cc(c3ccccc3c1)OCCCc1c(C(=O)O)n(C)c3c-2c(Cl)ccc13 [AZD5991] + C1CN(CCC1(C(=O)N[C@@H](CCO)C2=CC=C(C=C2)Cl)N)C3=NC=NC4=C3C=CN4 [Capivasertib] (first compound max 1 µM, 7x7, partner max 3 µM)
Out: 0.43

In: Give the value of combination Emax reported for the following: CN(CCO)CC[C@H](CSc1ccccc1)Nc1ccc(S(=O)(=O)NC(=O)c2ccc(N3CCC([C@@H](O)c4ccccc4-c4ccc(Cl)cc4)CC3)cc2)cc1S(=O)(=O)C(F)(F)F [AZD4320] + Cc1cc2ncnn2cc1Nc1ncc2c(n1)n(C1CCOCC1)c(=O)n2C [AZD7648] (first compound max 1 µM, 7x7, partner max 10 µM)
Out: 1
